Target: T1, EsCas13d, nuclease-dead (Eubacterium siraeum, UniProt B0MS50, R295A;H300A;R849A;H854A)
T1 sequence: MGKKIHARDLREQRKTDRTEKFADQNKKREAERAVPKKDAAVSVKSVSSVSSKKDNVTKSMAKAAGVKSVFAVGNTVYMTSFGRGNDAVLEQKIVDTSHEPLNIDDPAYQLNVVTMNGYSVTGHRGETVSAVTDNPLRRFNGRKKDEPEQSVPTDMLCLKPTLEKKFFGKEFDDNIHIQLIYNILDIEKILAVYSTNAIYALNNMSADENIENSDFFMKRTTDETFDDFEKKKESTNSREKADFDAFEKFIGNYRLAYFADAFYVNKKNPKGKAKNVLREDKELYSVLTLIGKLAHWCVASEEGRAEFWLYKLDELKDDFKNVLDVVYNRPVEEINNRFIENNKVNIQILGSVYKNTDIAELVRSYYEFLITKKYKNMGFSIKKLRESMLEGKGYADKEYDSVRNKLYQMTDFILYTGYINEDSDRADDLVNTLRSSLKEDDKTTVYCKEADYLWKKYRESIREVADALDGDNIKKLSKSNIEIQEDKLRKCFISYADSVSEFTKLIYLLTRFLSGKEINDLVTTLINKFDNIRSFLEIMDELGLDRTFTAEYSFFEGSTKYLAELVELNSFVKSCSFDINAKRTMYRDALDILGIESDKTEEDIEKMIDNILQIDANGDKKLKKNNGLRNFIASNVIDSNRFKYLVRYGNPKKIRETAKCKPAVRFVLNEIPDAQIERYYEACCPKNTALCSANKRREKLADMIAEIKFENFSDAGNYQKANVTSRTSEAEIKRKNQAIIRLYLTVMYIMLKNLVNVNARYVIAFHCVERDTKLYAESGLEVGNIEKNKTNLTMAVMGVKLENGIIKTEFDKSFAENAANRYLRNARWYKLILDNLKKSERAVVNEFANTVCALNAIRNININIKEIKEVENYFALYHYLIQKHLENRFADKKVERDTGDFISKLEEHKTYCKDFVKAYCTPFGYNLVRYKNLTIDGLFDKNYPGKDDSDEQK
Assay: crRNA (strand 1, pre-loaded); Mg2+; 40 mM Tris-HCl pH 7.5, 150 mM NaCl, 6 mM MgCl2, 1 mM DTT, 0.1% Tween-20, 0.2 mg/ml BSA; 25 C; 10 min per concentration, then washed
Details: tags: His6-TwinStrep-SUMO cleaved; N-terminal SNAP kept (SNAP-Surface 488); label: 3' end held by stalled T7 RNA polymerase
Answer each item with its documented pKd.
Reminder that pKd means the negative base-10 logarithm of the concentration expressed in mol/L.

stdin: What measured pKd goes with target 2 MT 5'PFS AUU 3'PFS AAG (mixed) RNA 1: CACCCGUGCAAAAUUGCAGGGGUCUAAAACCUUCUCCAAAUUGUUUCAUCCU RNA 2: GGGAAUGGAUCCACAUCUACGAAUUCAUUAGGAUGAAACAAUUUGGAGAAGAAGAGAUCGGAAGAGCACACGU ?
stdout: 8.25

stdin: Note, next up: target 2 MT 5'PFS AUA 3'PFS AAC (mixed) RNA 1: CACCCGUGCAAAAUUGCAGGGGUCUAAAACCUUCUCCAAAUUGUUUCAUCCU RNA 2: GGGAAUGGAUCCACAUCUACGAAUUCAUAAGGAUGAAACAAUUUGGAGAAGAACAGAUCGGAAGAGCACACGU
stdout: 8.28

stdin: Now try target 2 MT 5'PFS GUC 3'PFS UCA (mixed) RNA 1: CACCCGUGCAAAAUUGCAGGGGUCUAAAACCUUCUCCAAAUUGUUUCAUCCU RNA 2: GGGAAUGGAUCCACAUCUACGAAUUCGUCAGGAUGAAACAAUUUGGAGAAGUCAAGAUCGGAAGAGCACACGU .
stdout: 7.77

stdin: One more binder: target 1 U8C,C21U (mixed) RNA 1: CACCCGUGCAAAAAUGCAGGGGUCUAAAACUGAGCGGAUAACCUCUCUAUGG RNA 2: GGGAAUGGAUCCACAUCUACGAAUUCGUACUAUAGAGAGGUUACCCGCUCACCGAGAUCGGAAGAGCACACGU
stdout: 8.02
